Sourced from patent US20140056918A1

Target: T1, Human OSCAR-ECD (recombinant extracellular domain of human OSCAR) (human, UniProt Q8IYS5 19-218)
T1 construct: also called OSACAR-ECD
T1 chain: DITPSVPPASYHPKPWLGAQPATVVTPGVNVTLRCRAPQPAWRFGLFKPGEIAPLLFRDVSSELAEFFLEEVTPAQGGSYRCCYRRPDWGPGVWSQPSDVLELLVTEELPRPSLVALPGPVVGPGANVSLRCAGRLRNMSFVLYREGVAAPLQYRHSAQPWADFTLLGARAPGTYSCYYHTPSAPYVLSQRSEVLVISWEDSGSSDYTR
Test: SPR competition, 50 nM OSCAR-ECD premixed with mAb, over immobilised collagen I; note: unit not given here
measured endpoint: binding of OSCAR-ECD to collagen I with 10 µg/mL mAb

{"binder": "7F1A1 (antibody, V domains shown, Mouse anti-human OSCAR mAb; The heavy chain entry covers only VH-CH1 and the start of the hinge) VH: QVQLQQSGAELVRPGTSVKVSCKASGYAFTNYMIEWVKKRPGQGLEWIGVINPGSGGTNYNEKFENKATLTADKSSSTAYMQLSSLTSDDSAVYFCARSLDFDGAWFAYWGQGTLVTVSA VL: DIQMTQSPASLSVSVGETVTITCRASEKIYSNLAWYQQKQGKSPQLLVYAATNLADGVPSRFSGSGSGTQFSLKINSLQPEDFGSYYCQHFWGIPWTFGGGTKLEIKR", "endpoint value": 145}
{"binder": "6F6B (antibody, V domains shown, Mouse anti-OSCAR mAb) VH: EVQLQQSGAELVKPGASVKLSCTASGFNIKDTYVHWVKQRPDQGLEWIGRIDPAIGNTKYDPKFRGKATITADSSSNTAYLQLSSLTSEDTAVYYCARLSYGNYGLDYSMDYWGQGTSVTVSS VL: DIVLTQSPATLSVTPGDSVSLSCRASQSITNNLHWYQQKSHESPRLLIKYASQSISGIPSRFRGSGSGTDFTLSINSVETEDFGVYFCQQSNTWPRTFGGGTKLEIKR", "endpoint value": 1.7}
{"binder": "7F6A1 (antibody, V domains shown, Mouse anti-human OSCAR mAb; The heavy chain entry covers only VH-CH1 and the start of the hinge) VH: DVKLVESGGGLVKPGGSLKLSCAASGFTFSSYVMSWVRQTPEKRLEWVATISSGGSYTYYPDSVKGRFTISRDNAKNTLYLQMSSLKSEDTAMYYCTREGGNSPDYWGQGTTLTVSS VL: ENVLTQSPAIMSASPGEKVTMTCSVSSSISYMHWYRQKSFTSPQLWIYDTSKLASGVPGRFSGSGSGISYSLTISSMEAEDVATYYCFQGSEYPLTFGAGTKLELKR", "endpoint value": 19.2}
{"binder": "16F56 (antibody, V domains shown, Fully human mAb from HuMab mice; also called 16F56 (Hu); 16F56A2) VH: QVQLVQSGAEVKKPGSSVKVSCKASGGTFSNYAISWVRQAPGQGLEWMGRIIPILGIAHNAQKFQDRVTITADKSTSTAYMELSSLRSEDTAVYYCASPSSGKGLPYWFFDLWGRGTLVTVSS VL: DIQMTQSPSFLSASVGDRVTITCRASQSISSYLNWYQQKPGKAPKLLIYAASSLQSGVPSRFSGSGSGTDFTLTISSLQPEDFATYYCQCGYSTPLTFGGGTKVEIKR", "endpoint value": -3.2}
{"binder": "7F14A1 (antibody, V domains shown, Mouse anti-human OSCAR mAb; also called 7F14A4) VH: QVQLKESGPGLVAPSQSLSITCSVSGFSLTSYGVHWVRQPPGKGLEWLGVMWAGGSTNYNSALMSRLSISKDNSKSQVFLKMNSLQTDDSAMYYCALQKGYGNYFDYWGQGTTLTVSS VL: QIVLTQSPAIMSASPGEKVTMTCSASSSVNYMHWYQQKSGTSPKRWIYDTSNLASGVPTRFSGSGSGTSYSLTISSMEAEDAATYYCQQWSSDPLTFGAGTKLELKR", "endpoint value": 56.3}
